// data source = ChEMBL document CHEMBL5653626

For each record, write down the corresponding Fh.
assay: Stability in dog liver microsomes assessed as maximum bioavailability; assay type: ADME, Canis lupus familiaris, Microsome; details: read-out: Fmax
Answers are plain numbers, in %.

Completed entries (count: 2):
Molecule | Fh [%]
Cc1c(NC(=O)c2cc(C(N)=O)nc3cc(F)ccc23)c(C(F)(F)F)nn1Cc1ccc(C#N)cn1 | 100
Cc1c(NC(=O)c2cc(C(N)=O)nc3ccccc23)c(C(F)(F)F)nn1Cc1ccc(C#N)cc1 | 97

Moving on to another compound below.
For this compound ( Cc1c(NC(=O)c2cc(C(N)=O)nc3cc(F)ccc23)c(C(F)(F)F)nn1Cc1ccc(C#N)cc1 ), measured Fh is 100

----------
assay: Stability in mouse liver microsomes assessed as maximum bioavailability; assay type: ADME, Microsome; conditions: read-out: Fmax
Metric: Fh (%)
Answers are plain numbers, in %.

Field: example entries. Status: answers known.
Molecule | Fh, %
Cc1c(NC(=O)c2cc(C(N)=O)nc3ccccc23)c(C(F)(F)F)nn1Cc1ccc(C#N)cc1 | 74
Cc1ccc2nc(C)cc(C(=O)Nc3c(C)nn(Cc4ccc(F)cc4)c3C)c2c1 | 25
Cc1c(NC(=O)c2cc(C(N)=O)nc3cc(F)ccc23)c(C(F)(F)F)nn1Cc1ccc(C#N)cc1 [BAY-876] | 94
Cc1c(NC(=O)c2cc(C(N)=O)nc3cc(F)ccc23)c(C(F)(F)F)nn1Cc1ccc(C#N)cn1 | 93
Cc1c(NC(=O)c2cc(C(F)(F)F)nc3ccc(Br)cc23)c(C(F)(F)F)nn1Cc1ccc(F)cc1 | 59

Consider the additional molecule presented here.
Fh measured on Cc1ccc2nc(C(N)=O)cc(C(=O)Nc3c(C(F)(F)F)nn(Cc4ccc(C#N)cc4)c3C)c2c1 = 57

----------
experiment: Stability in rat hepatocytes assessed as maximum bioavailability; assay type: ADME, Hepatocyte; conditions: read-out: Fmax
Metric: Fh (%)
Give bare numbers, in %.

Molecule | Unit Descriptor | Fh
Cc1c(NC(=O)c2cc(C(N)=O)nc3cc(F)ccc23)c(C(F)(F)F)nn1Cc1ncc(C#N)cn1 | % | 79
Cc1ccc2nc(C(N)=O)cc(C(=O)Nc3c(C(F)(F)F)nn(Cc4ccc(C#N)cc4)c3C)c2c1 | % | 53
Cc1c(NC(=O)c2cc(C(N)=O)nc3cc(F)ccc23)c(C(F)(F)F)nn1Cc1cnc(C#N)cn1 | % | 72
Cc1c(NC(=O)c2cc(C(N)=O)nc3cc(F)ccc23)c(C(F)(F)F)nn1Cc1ccc(C#N)cc1 [BAY-876] | % | 89

As a next step, examine the molecule that follows.
Cc1c(NC(=O)c2cc(C(N)=O)nc3cc(F)ccc23)c(C(F)(F)F)nn1Cc1ccc(C#N)cn1 yielded Fh of 99

----------
biological target: UniProtKB P11168; assay: Inhibition of human GLUT2 expressed in CHO cells assessed as reduction in fructose uptake by measuring decrease in ATP production incubated for 15 mins in presence of oxidative phosphorylation inhibitor rotenone by CellTiter-Glo Luminescent Cell Viability Assay
Sequence (P11168 whole entry): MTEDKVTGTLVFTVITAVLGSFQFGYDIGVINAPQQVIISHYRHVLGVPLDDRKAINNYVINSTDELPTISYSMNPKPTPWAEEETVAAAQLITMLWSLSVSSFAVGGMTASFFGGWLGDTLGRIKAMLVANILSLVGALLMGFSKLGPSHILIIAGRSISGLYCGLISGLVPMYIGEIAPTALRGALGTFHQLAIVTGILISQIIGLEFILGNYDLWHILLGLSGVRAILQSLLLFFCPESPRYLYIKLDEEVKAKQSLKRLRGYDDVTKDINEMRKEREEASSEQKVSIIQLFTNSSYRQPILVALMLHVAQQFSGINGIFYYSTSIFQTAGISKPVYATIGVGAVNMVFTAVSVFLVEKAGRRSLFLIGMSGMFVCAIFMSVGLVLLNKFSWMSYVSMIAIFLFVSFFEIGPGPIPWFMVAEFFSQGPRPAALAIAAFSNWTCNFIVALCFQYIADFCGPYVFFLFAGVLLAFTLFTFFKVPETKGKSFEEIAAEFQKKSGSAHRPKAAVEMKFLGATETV
Metric: pIC50
Give bare numbers, as −log10 of the molar value.

Worked cases, answers included:
Molecule | Metric | Measured Value
Cc1nn(CC2CCOCC2)c(C)c1NC(=O)c1cc(C(F)(F)F)nc2ccc(Br)cc12 | pIC50 | 5.07
C=C1[C@@H](C)[C@H]2[C@H](Cc3ccccc3)NC(=O)[C@]23OC(=O)/C=C/[C@H](O)CCC[C@@H](C)C/C=C/[C@H]3[C@@H]1O | pIC50 | 5.55

Now consider the entry below.
Here Cc1c(NC(=O)c2cc(C(N)=O)nc3ccccc23)c(C(F)(F)F)nn1Cc1ccc(C#N)cc1 was tested on UniProtKB P11168, and its pIC50 came to 4.16

----------
assay: Stability in human liver microsomes assessed as maximum bioavailability; format: ADME, Microsome; conditions: read-out: Fmax
Consider the following compounds; for each one, report its Fh.
One number for each entry, in %.

Compound | Fh (%)
Cc1c(NC(=O)c2cc(C(N)=O)nc3cc(F)ccc23)c(C(F)(F)F)nn1Cc1cnc(C#N)cn1 | 60
Cc1c(NC(=O)c2cc(C(N)=O)nc3cc(F)ccc23)c(C(F)(F)F)nn1Cc1ccc(C#N)cc1 [BAY-876] | 76
Cc1c(NC(=O)c2cc(C(N)=O)nc3cc(F)ccc23)c(C(F)(F)F)nn1Cc1ccc(C#N)cn1 | 86

// switching to the query compound
Lab note: measured Fh of Cc1c(NC(=O)c2cc(C(N)=O)nc3cc(F)ccc23)c(C(C)C)nn1Cc1ccc(C#N)cc1 was 34

----------
assay: Stability in human liver microsomes assessed as maximum bioavailability; type: ADME, Microsome; details: read-out: Fmax
Metric: Fh
Could you give the number and then its unit, please?

Observe how each entry below is paired with its result.
Molecule | Fh
Cc1c(NC(=O)c2cc(C(N)=O)nc3cc(F)ccc23)c(C(F)(F)F)nn1Cc1ncc(C#N)cn1 | 83%
Cc1c(NC(=O)c2cc(C(N)=O)nc3ccccc23)c(C(F)(F)F)nn1Cc1ccc(C#N)cc1 | 84%

Let's switch to this molecule now.
Lab note: measured Fh of Cc1ccc2nc(C)cc(C(=O)Nc3c(C)nn(Cc4ccc(F)cc4)c3C)c2c1 was 11%

----------
experiment: Clearance in rat hepatocytes; assay type: ADME, cell-based, Hepatocyte
Give CLhep predicted for every item shown.
Numbers only, in mL/min/kg.

Molecule | CLhep predicted [mL/min/kg]
Cc1c(NC(=O)c2cc(C(F)(F)F)nc3ccc(Br)cc23)c(C(F)(F)F)nn1Cc1ccc(F)cc1 | 43.3
CCc1ccc(Cn2nc(C(F)(F)F)c(NC(=O)c3cc(C(N)=O)nc4cc(F)ccc34)c2C)cc1 | 48.3
Cc1c(NC(=O)c2cc(C(N)=O)nc3cc(F)ccc23)c(C(F)(F)F)nn1Cc1ccc(C#N)cc1 | 7.67
Cc1cc(C)c2nc(-c3ccco3)cc(C(=O)Nc3c(C)nn(Cc4ccc(F)cc4)c3C)c2c1 | 63.3
Cc1nn(Cc2ccc(C#N)cc2)c(C)c1NC(=O)c1cc(C(N)=O)nc2cc(F)ccc12 | 16.7
Cc1ccc2nc(C)cc(C(=O)Nc3c(C)nn(Cc4ccc(F)cc4)c3C)c2c1 | 61.7
Cc1c(NC(=O)c2cc(C(N)=O)nc3cc(F)ccc23)c(C(F)(F)F)nn1Cc1ccc(C#N)cn1 | 0.667
Cc1c(NC(=O)c2cc(C(N)=O)nc3ccccc23)c(C(F)(F)F)nn1Cc1ccc(C#N)cc1 | 30

Batch: CLhep predicted for all items listed.
1. Cc1nn(Cc2ccc(F)cc2)c(C)c1NC(=O)c1cc(C(F)(F)F)nc2ccc(Br)cc12
2. Cc1c(NC(=O)c2cc(C(N)=O)nc3cc(F)ccc23)c(C(F)(F)F)nn1Cc1ncc(C#N)cn1
3. Cc1c(NC(=O)c2cc(-c3ncnn3C)nc3ccccc23)c(C(F)(F)F)nn1Cc1ccc(C#N)cc1
4. Cc1ccc2nc(C(N)=O)cc(C(=O)Nc3c(C(F)(F)F)nn(Cc4ccc(C#N)cc4)c3C)c2c1
5. Cc1c(NC(=O)c2cc(C(N)=O)nc3cc(F)ccc23)c(C(F)(F)F)nn1Cc1cnc(C#N)cn1

48.3
14.8
31.7
33.3
20

----------
Please provide measured pIC50 for the entries that follow.
Target: Solute carrier family 2, facilitated glucose transporter member 3 (Homo sapiens, UniProt P11169)
Sequence (P11169 whole entry): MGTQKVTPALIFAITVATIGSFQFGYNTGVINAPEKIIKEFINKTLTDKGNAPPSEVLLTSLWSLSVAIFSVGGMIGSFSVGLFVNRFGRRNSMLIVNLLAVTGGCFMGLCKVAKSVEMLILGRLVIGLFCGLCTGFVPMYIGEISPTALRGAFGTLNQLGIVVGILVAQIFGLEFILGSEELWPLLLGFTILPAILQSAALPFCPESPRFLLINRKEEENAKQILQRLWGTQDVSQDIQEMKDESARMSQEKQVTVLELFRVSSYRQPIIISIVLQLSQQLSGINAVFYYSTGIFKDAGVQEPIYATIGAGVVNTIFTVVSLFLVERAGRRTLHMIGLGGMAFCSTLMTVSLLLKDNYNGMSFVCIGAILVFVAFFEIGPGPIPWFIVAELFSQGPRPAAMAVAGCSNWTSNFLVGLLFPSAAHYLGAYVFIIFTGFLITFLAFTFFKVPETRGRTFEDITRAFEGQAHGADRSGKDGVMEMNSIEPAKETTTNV
Assay: Inhibition of human GLUT3 expressed in human GLUT1-/- DLD-1 cells assessed as reduction in glucose uptake by measuring decrease in ATP production incubated for 15 mins in presence of oxidative phosphorylation inhibitor rotenone by CellTiter-Glo Luminescent Cell Viability Assay
Assay type: cell-based
Answers are plain numbers, as −log10 of the molar value.

Molecule | Measured Value
COc1ccc2nc(C(N)=O)cc(C(=O)Nc3c(C(F)(F)F)nn(Cc4ccc(C#N)cc4)c3C)c2c1 | 6.96
Cc1c(NC(=O)c2cc(C(N)=O)nc3ncccc23)c(C(F)(F)F)nn1Cc1ccc(C#N)cc1 | 6.52
Cc1c(NC(=O)c2cc(C(N)=O)nc3cccc(F)c23)c(C(F)(F)F)nn1Cc1ccc(C#N)cc1 | 6.64
Cc1cccc2nc(C(N)=O)cc(C(=O)Nc3c(C(F)(F)F)nn(Cc4ccc(C#N)cc4)c3C)c12 | 7.07
Cc1c(NC(=O)c2cc(C(N)=O)nc3cc(F)cc(F)c23)c(C(F)(F)F)nn1Cc1ccc(C#N)cc1 | 6.33

Hi team, please reply with pIC50 for each item in this list.
1. Cc1c(NC(=O)c2cc(C(N)=O)nc3ccc(F)cc23)c(C(F)(F)F)nn1Cc1ccc(C#N)cc1
2. Cc1c(NC(=O)c2cc(C(N)=O)nc3ccccc23)c(C(F)(F)F)nn1Cc1ccc(C#N)cc1

1. 6.54
2. 6.24
